# ASSAY TARGET: T1, human interleukin-23 receptor (IL23R) (human, UniProt Q5VWK5 24-355, limits assumed)
# T1 construct: also called human IL23R
# T1 sequence (looked up): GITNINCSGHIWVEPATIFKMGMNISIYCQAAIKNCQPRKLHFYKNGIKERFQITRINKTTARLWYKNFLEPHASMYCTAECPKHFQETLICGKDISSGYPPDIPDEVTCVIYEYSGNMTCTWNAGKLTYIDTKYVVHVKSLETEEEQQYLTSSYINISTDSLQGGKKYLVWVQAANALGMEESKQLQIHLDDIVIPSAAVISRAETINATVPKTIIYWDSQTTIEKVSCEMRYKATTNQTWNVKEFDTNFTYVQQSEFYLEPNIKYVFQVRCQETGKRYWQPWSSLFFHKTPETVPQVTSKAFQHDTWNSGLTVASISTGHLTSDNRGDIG
# MEASUREMENT NOTES: SPR; KD of the capped scFv over KD of its uncapped counterpart
# Ratio (capped/uncapped) of KD per record follows

BINDER	Ratio (capped/uncapped) of KD
Vκ2/VH6 consensus λ-capped, human IL23R specific scFv (scFv, scFv VL-linker-VH, made in E. coli; also called Vκ2VH6 capped) scFv: DIVMTQSPLSLPVTPGEPASISCQASENIYSFLAWYLQKPGQSPQLLIYSASKLAAGVPDRFSGSGSGTDFTLKISRVEAEDVGVYYCQQTNRYSNPDIYNVFGGGTKLTVLGGGGGSGGGGSGGGGSGGGGSQVQLQQSGPGLVKPSQTLSLTCAISGIDFNSNYYMCWIRQSPGRGLEWLGCIYVGSHVNTYYANWAKGRITINPDTSKNQFSLQLNSVTPEDTAVYYCATSGSSVLYFKFWGQGTLVTVSS	0.3
Vκ2/VH1A consensus λ-capped, human IL23R specific scFv (scFv, scFv VL-linker-VH, made in E. coli; also called Vκ2VH1A capped) scFv: DIVMTQSPLSLPVTPGEPASISCQASENIYSFLAWYLQKPGQSPQLLIYSASKLAAGVPDRFSGSGSGTDFTLKISRVEAEDVGVYYCQQTNRYSNPDIYNVFGGGTKLTVLGGGGGSGGGGSGGGGSGGGGSQVQLVQSGAEVKKPGSSVKVSCKASGIDFNSNYYMCWVRQAPGQGLEWMGCIYVGSHVNTYYANWAKGRVTITADESTSTAYMELSSLRSEDTAVYYCATSGSSVLYFKFWGQGTLVTVSS	0.3
Vκ1/VH5 consensus λ-capped, human IL23R specific scFv (scFv, scFv VL-linker-VH, made in E. coli; also called Vκ1VH5 capped) scFv: DIQMTQSPSSLSASVGDRVTITCQASENIYSFLAWYQQKPGKAPKLLIYSASKLAAGVPSRFSGSGSGTDFTLTISSLQPEDFATYYCQQTNRYSNPDIYNVFGGGTKLTVLGGGGGSGGGGSGGGGSGGGGSEVQLVQSGAEVKKPGESLKISCKGSGIDFNSNYYMCWVRQMPGKGLEWMGCIYVGSHVNTYYANWAKGQVTISADKSISTAYLQWSSLKASDTAMYYCATSGSSVLYFKFWGQGTLVTVSS	1.7
